# Lookup of reported IC50 (pM), blocking of Ba/F3 cell proliferation keyed by entry
Experimental System: T1, "Non-linked" human IL-23 (human p40 coexpressed in 293T cells with human p19:FLAG-tag peptide) (human, UniProt P29460 23-328)
T1 sequence 1: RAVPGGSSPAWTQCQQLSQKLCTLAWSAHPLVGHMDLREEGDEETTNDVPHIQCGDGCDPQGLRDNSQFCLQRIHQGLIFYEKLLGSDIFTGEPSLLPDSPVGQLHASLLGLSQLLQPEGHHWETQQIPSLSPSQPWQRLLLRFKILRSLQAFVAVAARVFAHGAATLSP
T1 sequence 2: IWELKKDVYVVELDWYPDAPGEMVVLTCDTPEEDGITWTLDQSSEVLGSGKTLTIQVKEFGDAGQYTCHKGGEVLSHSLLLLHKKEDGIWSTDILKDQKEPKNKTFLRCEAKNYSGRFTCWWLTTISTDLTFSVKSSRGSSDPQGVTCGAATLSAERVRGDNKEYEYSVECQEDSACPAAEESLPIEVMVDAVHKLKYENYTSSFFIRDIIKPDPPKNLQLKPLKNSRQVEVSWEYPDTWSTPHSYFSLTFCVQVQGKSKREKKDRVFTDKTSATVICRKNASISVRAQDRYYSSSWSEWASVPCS
Protocol Description: cell-based or functional assay
// units = pM; emit number, no label

Guide cases for IC50 (pM), blocking of Ba/F3 cell proliferation, answers given:
* mouse anti-human IL-23p19 antibody 33B12 (antibody, V domains shown, also called m33B12) VH: QVQLQQSGAELARPGASVKLSCKASGYTFTSYSLKWVKQRTGQGLEWIGEIHPRSGNTHYNEKFKGKATLTADKSSSTAYMDLRSLTSEDSAVYFCATNWDLGYWGQGTTITVSS VL: DIVLTQSPATLSVTPGDRVSLSCRASQSISDYLHWFQQRSHESPRLLIKYASQSISGIPSRFSGSGSGSDFTLSINSVEPEDVGVYYCQNGHSFPFTFGSGTKLEIKR | 193
* humanized anti-human IL-23p19 antibody 6H12 (antibody, human IgG1, kappa, V domains shown, Full-length humanized antibody, human IgG1 / kappa; also called hu6H12; hum6H12) VH: QVQLVQSGAEVKKPGASVKVSCKASGYTFNRYLIHWVRQAPGQGLEWMGYINPNNAGTNYNEKFKGRVTMTTDTSTSTAYMELRSLRSDDTAVYYCARNWDQAYWGQGTLVTVSS VL: DIQMTQSPSSLSASVGDRVTITCRASQSISDYLHWYQQKPGKAPKLLIYYTSQSISGVPSRFSGSGSGTDFTLTISSLQPEDFATYYCQNGHSFPFTFGQGTKVEIKR | 4000
* mouse anti-human IL-23p19 antibody 2G12 (antibody, V domains shown) VH: EVQLQQSGPELVKPGASVKMSCKASGYTFTCCILHWVKQKPGQGLEWIGYINPYNDGTKYNEKFKGKATLTSDKSSRTAYMELSSLTSEDSAVYYCARRWDEAYWGQGTLVTVSA VL: DIVMTQSPATLSVTPGDRVSLSCRASQSISAYLHWYQQKSHESPRLLIKYASQSISGIPSRFSGSGSGSDFTLSINSVEPEDVGIYYCQNGHSFPFTFGSGTKLEIKR | 183
* mouse anti-human IL-23p19 antibody 12C11 (antibody, V domains shown) VH: EVMLVESGGGLVKPGGSLKLSCAASGFTFSNYGMSWVRQSPERGLEWVATISTGGRYTFYSDTVKGRFTISRDNARNTLYLKMSSLISEDTAVHYCARHEGDTYYGWYFDVWGAGTTVTVSS VL: DIVLTQSPASLAVSLGQRATISCKASHSVDYDVDSFMNWYQQKPGQPPKLLIFASSSLESGIPARFSGSGSGTNFILNIHPVEEEDAATYYCQQGNEDLFTFGSGTKLEIKR | 57
* mouse anti-human IL-23p19 antibody 8E9 (antibody, V domains shown) VH: EVQLQQSGPELVKPGASVKMSCKASGYTFTAYLIHWVKQSHGKSLEWIGYINPNNGGTNYNQKFKDKATLTVNKSSATAYMELRSLTSEDSAVFYCSSNWDLDYWGRGTTLTVSS VL: DIVMTQSPATLSVTPGDRVSLSCRASQSIGDYLHWYQQKLHESPRLLIKYASRSISGIPSRFSGSGSGSYFTLSINSVEAEDVGVYFCQNGHSFPFTFGSGTKLEIKR | 8
* mouse anti-human IL-23p19 antibody 2C6 (antibody, V domains shown) VH: EVQLQQSGPELVKPGASVKMSCKASGYTFTRYLIHWVKQKPGQGLEWIGYVNPYNDGTNYNEKFRGKATLTSDKSSSTAYMELSSLTSEDSAVYYCTSNWDLNYWGQGTTLTVSS VL: DIVMTQSPATLSVTPGDRVSLSCRASQSISDYLYWYQQKSHESPRLLIKYASQSISGIPSRFSGSGSGSDFTLSINSVEPEDVGVYFCQNGHSFPFTFGSGTKLEIKR | 11

Okay, next one:
Prompt: Tell me the measured IC50 (pM), blocking of Ba/F3 cell proliferation of mouse anti-human IL-23p19 antibody 15G2 (antibody, V domains shown) VH: EVQLQQSGPELVKPGASVKMSCKASGYTFTNYLMHWVKQKPGQGLEWIGYINPYNDGTNYNEKFKGKATLTSDKSSSTAYMELSSLTSEDSAIYFCTSNWDLDYWGQGTTLTVSS VL: DIVMTQSPATLSVTPGDRVSLSCRASQSISDYLHWYQQKSHESPRLLIKYASQSISGIPSRFSGSGSGSDFILNINSVEPEDVGVYYCQNGHSFPYTFGGGTKLEIKR , please.
Response: 133

The reported measurements were obtained from patent US20130039916A1.
